Source of measurements: PubChem BioAssay (NCATS)

- testName: Quantitative High-Throughput drug screen in 47 multiple myeloma cell lines against the NCATS MIPE library collection: OCIMY1_PLB cell viability assay (AID 1918979); also: nearly all actives have a fitted effect of over 35% in size;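 as to viability: 100% = DMSO-only wells and 0% = cell-free media-only wells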
- settings: OCI-MY1 myeloma viability, CellTiter-Glo ATP, 48 h; series mostly up to 45.8 µM
Results filed as inconclusive are left out. Active and inactive are the calls of the source. Calls follow the shape of the dose curve; as a rule, active = well fitted cell-killing curve with a large enough effect; inconclusive = small, poorly fitted or top-dose-only effect, or effect the other way; inactive = no such curve, though single readings can be large or run the other way.
Outcome codes: 1 (active), -1 (inactive)

{"columns": ["recordSmiles", "labelClass"],
 "data": [
  ["CCNC(=O)[C@H]1O[C@@H](n2cnc3c(N)nc(NCCc4ccc(CCC(=O)O)cc4)nc32)[C@H](O)[C@H]1O", -1],
  ["N#Cc1c(N(CC(=O)O)CC(=O)O)sc(C(=O)O)c1CC(=O)O", -1],
  ["CCOC(=O)N1CCN([N+]([O-])=NOc2cc(ON=[N+]([O-])N3CCN(C(=O)OCC)CC3)c([N+](=O)[O-])cc2[N+](=O)[O-])CC1", 1]
]}

---

- testName: Quantitative High-Throughput drug screen in 47 multiple myeloma cell lines against the NCATS MIPE library collection: KMS26_JCRB cell viability assay (AID 1918975); also: nearly all actives have a fitted effect of over 45% in size
- settings: KMS26 myeloma cells viability, CellTiter-Glo ATP, 48 h; series mostly up to 45.8 µM
Results filed as inconclusive are left out. Activity calls are given as the source filed them. Calls follow the shape of the dose curve; as a rule, active = well fitted cell-killing curve with a large enough effect; inconclusive = small, poorly fitted or top-dose-only effect, or effect the other way; inactive = no such curve, though single readings can be large or run the other way.
Outcomes: yes (active), no (inactive)

{"columns": ["compound", "labelClass"],
 "data": [
  ["COc1ccc(-c2nc3ccc(C4=NNC(=O)CC4C)cc3[nH]2)cc1 (stereo unspecified)", "no"],
  ["CC(C)CN(C[C@H](O)[C@H](Cc1ccccc1)NC(=O)O[C@H]1CCOC1)S(=O)(=O)c1ccc(N)cc1", "yes"],
  ["COc1ccc2ccc(=O)oc2c1CC=C(C)C", "yes"],
  ["COc1ccc2nc3cc(Cl)ccc3c(Nc3cc(CN4CCCC4)c(O)c(CN4CCCC4)c3)c2n1", "yes"],
  ["Cn1c(=O)c(-c2c(Cl)cccc2Cl)cc2cnc(Nc3cccc(C(=O)O)c3)nc21", "yes"],
  ["Cc1cccc(Nc2nc(N[C@@H]3CCCC[C@H]3N)ncc2C(N)=O)c1", "yes"]
]}

---

- testName: Quantitative High-Throughput drug screen in 47 multiple myeloma cell lines against the NCATS MIPE library collection: XG6_PLB cell viability assay (AID 1919865); also: nearly all actives have a fitted effect of over 40% in size
- settings: XG6 myeloma viability, CellTiter-Glo ATP luminescence, 48 h; series mostly up to 45.8 µM
Results filed as inconclusive are left out. Active and inactive are the calls of the source. Calls follow the shape of the dose curve; as a rule, active = well fitted cell-killing curve with a large enough effect; inconclusive = small, poorly fitted or top-dose-only effect, or effect the other way; inactive = no such curve, though single readings can be large or run the other way.
Outcome codes: true for active, false for inactive

{"columns": ["molecule", "labelClass"],
 "data": [
  ["OC[C@H]1O[C@@H](OCCc2ccc(O)cc2)[C@H](O)[C@@H](O)[C@H]1O", "true"],
  ["Cc1ccc2c(c1)C(=O)[C@]1(O)CCN(c3ccccc3)C1=N2", "false"],
  ["Cc1nn(Cc2ccccc2Cl)c(C)c1CN(C)CC(O)COc1ccc(Cl)cc1 (stereo not drawn)", "true"]
]}

---

- testName: qHTS of pediatric cancer cell lines to identify multiple opportunities for drug repurposing: Primary screen for BT-37 cells (AID 1347094); also: potency is read from the fitted curve at half-maximal effect
- settings: BT-37 viability, CellTiter-Glo luminescence, 48 h; series mostly up to 57.3 µM
Records with an inconclusive call do not appear. Calls of active or inactive are those of the source. Calls follow the shape of the dose curve; as a rule, active = well fitted cell-killing curve with a large enough effect; inconclusive = small, poorly fitted or top-dose-only effect; inactive = flat fitted curve, though single readings scatter.

{"columns": ["compound", "Potency"],
 "data": [
  ["CC1(C)[C@H]2CC[C@]3(C)[C@@H](C(=O)C=C4[C@@H]5C[C@@](C)(C(=O)O)CC[C@]5(C)CC[C@]43C)[C@@]2(C)CC[C@@H]1O", "inactive"],
  ["CCCCn1c(=O)n(Cc2ccccc2F)c(=O)c2[nH]c(Cc3ccc(NC(C)=O)cc3)nc21", "inactive"],
  ["Cc1ccc(NC(=O)Nc2cc(C(F)(F)F)ccc2F)cc1Nc1ccc2c(c1)NC(=O)C2=Cc1ccc[nH]1", "24.3 µM (active)"],
  ["CCCCC(F)(F)[C@@]1(O)CC[C@H]2[C@H](CC(=O)[C@@H]2CCCCCCC(=O)O)O1", "inactive"],
  ["COc1cc2c(cc1Cc1cccc(Cl)c1F)c(=O)c(C(=O)O)cn2[C@H](CO)C(C)C", "13.7 µM (active)"],
  ["CNC1CCC(N(Cc2cccc(-c3ccncc3)c2)C(=O)c2sc3ccccc3c2Cl)CC1 (centres undefined)", "24.3 µM (active)"],
  ["CN1CCC(COc2cnc(-c3cccc(Cn4nc(-c5cccc(C#N)c5)ccc4=O)c3)nc2)CC1", "inactive"],
  ["COc1cc([C@@H]2c3cc4c(cc3[C@@H](O[C@@H]3O[C@@H]5CO[C@@H](C)O[C@@H]5[C@H](O)[C@@H]3O)[C@H]3COC(=O)[C@H]23)OCO4)cc(OC)c1O", "0.485 µM (active)"],
  ["COC(=O)Nc1ccc(-c2nc(N3CCOCC3)c3cnn(C4CCN(C(=O)OC)CC4)c3n2)cc1", "0.122 µM (active)"]
]}
